Measured values drawn from patent US8952024B2 for this set.

Tested on: bermudagrass (Cynodon dactylon)
Experiment description: Test B pre-/postemergence plant response
Type: in vivo
Experimental context: 250 g ai/ha, Preemergence, 0 to 100 scale
Parameter: Plant response rating, Bermudagrass
The answer should be a number; do not append a unit.

INSERT INTO results (molecular_string, parameter, observed_measurement) VALUES
  ('O=C1CCCC(O)=C1C(=O)c1cnc(-c2cccs2)n(-c2ccccc2)c1=O', 'Plant response rating, Bermudagrass', 98),
  ('O=C1CCCC(O)=C1C(=O)c1cnc(-c2cccc(Cl)c2)n(-c2ccccc2)c1=O', 'Plant response rating, Bermudagrass', 100),
  ('O=C1CCCC(O)=C1C(=O)c1cnc(-c2ccccc2)n(-c2ccccc2Br)c1=O', 'Plant response rating, Bermudagrass', 100),
  ('Cc1cc(F)ccc1-n1c(-c2ccccc2)ncc(C(=O)C2=C(O)CCCC2=O)c1=O', 'Plant response rating, Bermudagrass', 100),
  ('CCCc1ncc(C(=O)C2=C(O)CCCC2=O)c(=O)n1CCC', 'Plant response rating, Bermudagrass', 100);

Field: next molecule
In: Retrieve Plant response rating, Bermudagrass measured for Cc1ccc(Cl)cc1-n1c(-c2ccccc2)ncc(C(=O)C2=C(O)CCCC2=O)c1=O and print it.
Out: 100

* * *

System: velvetleaf (Abutilon theophrasti)
Experiment description: Test A pre-/postemergence plant response
Assay type: in vivo
Experimental context: Abutilon theophrasti, pre-emergence, 240 h; Preemergence, 125 g ai/ha; 0 to 100 scale, 0 = no effect, 100 = complete control; read-out: Plant response rating, Velvetleaf
Parameter: pest or weed control at 125 g/ha (%)
Respond numerically; units are % and should not be typed.

Worked examples follow.
INSERT INTO assay_data (molecular_string, units_of_measure, observed_measurement) VALUES
  ('O=C(c1cnoc1C1CC1)c1cnc(-c2ccccc2)n(-c2ccccc2)c1=O', '%', 0),
  ('O=C1CCCC(O)=C1C(=O)c1cnc(-c2ccccc2)n(C2CCCCC2)c1=O', '%', 80),
  ('Cc1c(F)cccc1-n1c(-c2ccccc2)ncc(C(=O)C2=C(O)CCCC2=O)c1=O', '%', 70),
  ('CCn1ncc(C(=O)c2cnc(-c3ccccc3)n(Cc3ccccc3)c2=O)c1O', '%', 0);

Field: next molecule
In: Retrieve pest or weed control at 125 g/ha measured for COCCCn1c(-c2ccccc2)ncc(C(=O)C2=C(O)CCCC2=O)c1=O and print it.
Out: 100

* * *

The following compounds are listed with their measured Barnyardgrass plant response rating values.
System: barnyardgrass (Echinochloa crus-galli)
Experiment description: Test A pre-/postemergence plant response
Type: in vivo
Experimental context: Postemergence, 125 g ai/ha; visual injury, 0 to 100 scale (0 no effect, 100 complete control), approx. ten days
The answer should be a number; do not append a unit.

Worked examples follow.
INSERT INTO measurements (molecular_string, assayed_target, observed_measurement) VALUES
  ('CC(C)Cc1ncc(C(=O)C2=C(O)CCCC2=O)c(=O)n1-c1ccccc1', 'barnyardgrass (Echinochloa crus-galli)', 80),
  ('Cc1ccc(F)c(-n2c(-c3ccccc3)ncc(C(=O)C3=C(O)CCCC3=O)c2=O)c1', 'barnyardgrass (Echinochloa crus-galli)', 90),
  ('CCCn1c(-c2ccccc2)ncc(C(=O)C2=C(O)CCCC2=O)c1=O', 'barnyardgrass (Echinochloa crus-galli)', 90);

In: Retrieve Barnyardgrass plant response rating measured for Cc1cc(Cl)ccc1-n1c(-c2ccccc2)ncc(C(=O)C2=C(O)CCCC2=O)c1=O and print it.
Out: 70
